Just for reference, paper PMC12865480 is where these values come from.

# run parameters: after 90 min incubation with mouse liver microsomes and NADPH
So I've got a bunch of compounds here, and I need their Metabolic Stability (5): amount of the remaining unmetabolized parent compound values.
// note: answer is a bare numeric in %

What measured Metabolic Stability (5): amount of the remaining unmetabolized parent compound goes with CC[C@]1(c2ccccc2)OCC[C@H](CCCCN2CCCC2)O1 (relative stereo) [19b] ?
62

Could you do the same for CN(CCCC[C@H]1CCO[C@@H](c2ccccc2)O1)Cc1ccccc1 (relative stereo) [18a] , please?
48

Do the same for CCC1(c2ccccc2)OCCC(CCCC(c2ccccc2)N2CCCC2)O1 (stereo not shown) [27b] please
55

Record: CC[C@]1(c2ccccc2)OCC[C@H](CCCCNCc2ccccc2)O1 (relative stereo) [17b]
50
